Listing of recorded CC50 by entry.
- System: PBMCs
- protocol.description: Viability of uninfected PBMCs
- Format: cell-based, human
- condition.notes: 6 days, Viacount dye
Give just the number in µM; leave the unit off.

>  <compound>
CN1CC[C@H](c2c(O)cc(O)c3c(=O)cc(-c4ccccc4Cl)oc23)[C@H](O)C1 [Flavopiridol, flavopiridol]

>  <test.target>
PBMCs

>  <measured.number>
0.22

$$$$

Challenge: Any idea what its CC50 is? The compound is COc1cc(F)ccc1-c1ncnc(Nc2cccc(C[S@](C)(=N)=O)c2)n1 [Atuveciclib, atuveciclib, reference compound]
Response given: 24.4

Challenge: Any idea what its CC50 is? The compound is O=c1cc(-c2ccc(O)c(O)c2)oc2cc(O[C@@H]3O[C@H](CO)[C@@H](O)[C@H](O)[C@H]3O)cc(O)c12 [L7G, luteolin-7-glucoside]
Response given: 18.3

###

- test.target: CDK9/cyclin T1 (Homo sapiens)
- Sequence (P50750 whole entry): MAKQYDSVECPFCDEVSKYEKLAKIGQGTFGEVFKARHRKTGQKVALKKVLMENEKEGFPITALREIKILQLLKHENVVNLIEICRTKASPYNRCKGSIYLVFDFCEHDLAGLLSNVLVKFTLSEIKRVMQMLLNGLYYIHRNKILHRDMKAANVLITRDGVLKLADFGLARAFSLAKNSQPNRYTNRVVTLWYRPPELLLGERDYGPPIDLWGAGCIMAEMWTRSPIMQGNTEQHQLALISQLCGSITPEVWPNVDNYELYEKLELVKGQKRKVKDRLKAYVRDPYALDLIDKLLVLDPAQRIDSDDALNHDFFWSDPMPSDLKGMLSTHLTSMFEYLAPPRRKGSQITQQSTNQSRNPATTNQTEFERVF
- Sequence (O60563 whole entry partner): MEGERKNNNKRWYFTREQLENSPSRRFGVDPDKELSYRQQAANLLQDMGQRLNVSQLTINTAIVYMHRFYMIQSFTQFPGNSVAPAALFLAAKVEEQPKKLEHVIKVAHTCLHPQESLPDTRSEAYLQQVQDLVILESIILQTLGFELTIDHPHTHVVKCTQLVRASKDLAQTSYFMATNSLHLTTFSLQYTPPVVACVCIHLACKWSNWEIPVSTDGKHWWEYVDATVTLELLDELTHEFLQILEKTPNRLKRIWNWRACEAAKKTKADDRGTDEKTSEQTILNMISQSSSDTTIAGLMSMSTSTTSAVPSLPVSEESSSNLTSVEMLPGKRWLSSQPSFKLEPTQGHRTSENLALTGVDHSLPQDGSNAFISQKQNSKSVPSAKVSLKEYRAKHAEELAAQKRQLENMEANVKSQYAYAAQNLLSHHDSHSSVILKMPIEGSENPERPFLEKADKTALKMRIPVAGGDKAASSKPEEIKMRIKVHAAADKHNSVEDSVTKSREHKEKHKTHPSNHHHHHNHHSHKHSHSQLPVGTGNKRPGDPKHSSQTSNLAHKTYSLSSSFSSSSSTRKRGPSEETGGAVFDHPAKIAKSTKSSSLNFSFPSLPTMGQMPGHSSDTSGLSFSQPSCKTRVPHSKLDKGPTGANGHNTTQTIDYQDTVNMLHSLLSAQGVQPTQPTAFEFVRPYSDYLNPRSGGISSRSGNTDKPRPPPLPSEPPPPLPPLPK
- protocol.description: CDK9 kinase activity assay
- Type: biochemical
- condition.notes: read-out: CDK9 inhibition IC50; purified CDK9/cyclin T1, 10 μM ATP, ADP-Glo
readout.kind: pIC50
Answer as the number alone; pIC50 is minus log10 of concentration in mol/L.

Challenge: Any idea what its pIC50 is? The compound is O=c1cc(-c2ccc(O)c(O)c2)oc2cc(O[C@@H]3O[C@H](CO)[C@@H](O)[C@H](O)[C@H]3O)cc(O)c12 [L7G, luteolin-7-glucoside]
Response given: 5.16

###

- Test system: J-Lat 9.2 cells
- protocol.description: LRA-induced provirus expression
- Type: cell-based
- condition.notes: read-out: TNFα EC50, inhibition of provirus expression; J-Lat 9.2, 10 ng/mL TNFα, 24 h, GFP
readout.kind: pEC50
Answer as the number alone; pEC50 is minus log10 of concentration in mol/L.

Challenge: J-Lat 9.2 cells / pEC50 / O=c1cc(-c2ccc(O)c(O)c2)oc2cc(O[C@@H]3O[C@H](CO)[C@@H](O)[C@H](O)[C@H]3O)cc(O)c12 [L7G, luteolin-7-glucoside] : value?
Response given: 5.35

###

- Tested on: J-Lat 9.2 cells
- protocol.description: LRA-induced provirus expression
- Format: cell-based
- condition.notes: read-out: Panobinostat EC50, inhibition of provirus expression; J-Lat 9.2, 0.1 μM panobinostat, 24 h, GFP
readout.kind: EC50 (µM)
Give just the number in µM; leave the unit off.

Challenge: Any idea what its EC50 is? The compound is O=c1cc(-c2ccc(O)c(O)c2)oc2cc(O[C@@H]3O[C@H](CO)[C@@H](O)[C@H](O)[C@H]3O)cc(O)c12 [L7G, luteolin-7-glucoside]
Response given: 4.3

###

- System: J-Lat 9.2 cells
- protocol.description: LRA-induced provirus expression
- Assay type: cell-based
- condition.notes: J-Lat 9.2, 24 h, read-out: TNFα EC50, inhibition of provirus expression
Listing of recorded EC50 by entry.
Give just the number in µM; leave the unit off.

Below are worked cases with known answers.
>  <compound>
CN1CC[C@H](c2c(O)cc(O)c3c(=O)cc(-c4ccccc4Cl)oc23)[C@H](O)C1 [Flavopiridol, flavopiridol]

>  <EC50, µM>
0.008

$$$$
>  <compound>
O=c1cc(-c2ccc(O)cc2)oc2cc(O)cc(O)c12 [Apigenin, apigenin]

>  <EC50, µM>
5.6

$$$$
>  <compound>
O=c1cc(-c2ccc(O)c(O)c2)oc2cc(O)cc(O)c12 [Luteolin, luteolin]

>  <EC50, µM>
7.6

$$$$
>  <compound>
O=c1cc(-c2ccccc2)oc2cc(O)cc(O)c12 [Chrysin, chrysin]

>  <EC50, µM>
4

$$$$

Challenge: Any idea what its EC50 is? The compound is COc1cc(F)ccc1-c1ncnc(Nc2cccc(C[S@](C)(=N)=O)c2)n1 [Atuveciclib, atuveciclib, reference compound]
Response given: 1.7

###

- Test system: J-Lat 10.6 cells
- protocol.description: LRA-induced provirus expression
- Format: cell-based
- condition.notes: J-Lat 10.6, 24 h, read-out: TNFα EC50, inhibition of provirus expression
readout.kind: pEC50
Answer as the number alone; pEC50 is minus log10 of concentration in mol/L.

Challenge: Any idea what its pEC50 is? The compound is O=c1cc(-c2ccccc2)oc2cc(O)cc(O)c12
Response given: 5.20

Challenge: Any idea what its pEC50 is? The compound is O=c1cc(-c2ccc(O)cc2)oc2cc(O)cc(O)c12
Response given: 5.21

Challenge: Any idea what its pEC50 is? The compound is COc1cc(F)ccc1-c1ncnc(Nc2cccc(C[S@](C)(=N)=O)c2)n1 [Atuveciclib, atuveciclib, reference compound]
Response given: 5.37

Challenge: Any idea what its pEC50 is? The compound is CN1CC[C@H](c2c(O)cc(O)c3c(=O)cc(-c4ccccc4Cl)oc23)[C@H](O)C1
Response given: 7.72

Challenge: Any idea what its pEC50 is? The compound is O=c1cc(-c2ccc(O)c(O)c2)oc2cc(O)cc(O)c12
Response given: 4.87

###

Listing of recorded EC50 by entry.
- Tested on: J-Lat 9.2 cells
- protocol.description: LRA-induced provirus expression
- Assay type: cell-based
- condition.notes: J-Lat 9.2, 24 h, read-out: Prostratin EC50, inhibition of provirus expression
Give just the number in µM; leave the unit off.

Below are worked cases with known answers.
>  <molecule>
O=c1cc(-c2ccccc2)oc2cc(O)cc(O)c12

>  <test.target>
J-Lat 9.2 cells

>  <readout.kind>
EC50

>  <measured.number>
4.3

$$$$
>  <molecule>
O=c1cc(-c2ccc(O)c(O)c2)oc2cc(O)cc(O)c12

>  <test.target>
J-Lat 9.2 cells

>  <readout.kind>
EC50

>  <measured.number>
20.6

$$$$
>  <molecule>
CN1CC[C@H](c2c(O)cc(O)c3c(=O)cc(-c4ccccc4Cl)oc23)[C@H](O)C1

>  <test.target>
J-Lat 9.2 cells

>  <readout.kind>
EC50

>  <measured.number>
0.009

$$$$
>  <molecule>
O=c1cc(-c2ccc(O)cc2)oc2cc(O)cc(O)c12

>  <test.target>
J-Lat 9.2 cells

>  <readout.kind>
EC50

>  <measured.number>
7.3

$$$$

Okay, next one:
Challenge: J-Lat 9.2 cells / EC50 / COc1cc(F)ccc1-c1ncnc(Nc2cccc(C[S@](C)(=N)=O)c2)n1 [Atuveciclib, atuveciclib, reference compound] : value?
Response given: 1.8

###

- protocol.description: Viability of uninfected PBMCs
- Type: cell-based, human
- condition.notes: human, CC50, uninfected PBMCs, Viacount dye
Listing of recorded CC50 at 6 days by entry.
Give just the number in µM; leave the unit off.

Below are worked cases with known answers.
>  <compound>
O=c1cc(-c2ccc(O)cc2)oc2cc(O)cc(O)c12 [Apigenin, apigenin]

>  <CC50 at 6 days (µM)>
19.8

$$$$
>  <compound>
CN1CC[C@H](c2c(O)cc(O)c3c(=O)cc(-c4ccccc4Cl)oc23)[C@H](O)C1 [Flavopiridol, flavopiridol]

>  <CC50 at 6 days (µM)>
0.25

$$$$
>  <compound>
COc1cc(F)ccc1-c1ncnc(Nc2cccc(C[S@](C)(=N)=O)c2)n1 [Atuveciclib, atuveciclib, reference compound]

>  <CC50 at 6 days (µM)>
24.7

$$$$

Okay, next one:
Challenge: Any idea what its CC50 at 6 days is? The compound is O=c1cc(-c2ccc(O)c(O)c2)oc2cc(O)cc(O)c12 [Luteolin, luteolin]
Response given: 13.9

###

- Test system: J-Lat 10.6 cells
- protocol.description: LRA-induced provirus expression
- Type: cell-based
- condition.notes: read-out: JQ1 EC50, inhibition of provirus expression; J-Lat 10.6, 10 μM JQ1, 24 h, GFP
readout.kind: EC50 (µM)
Give just the number in µM; leave the unit off.

Challenge: Any idea what its EC50 is? The molecule is O=c1cc(-c2ccc(O)c(O)c2)oc2cc(O[C@@H]3O[C@H](CO)[C@@H](O)[C@H](O)[C@H]3O)cc(O)c12 [L7G, luteolin-7-glucoside]
Response given: 16.4

###

- Test system: J-Lat 10.6 cells
- protocol.description: LRA-induced provirus expression
- Type: cell-based
- condition.notes: J-Lat 10.6, 24 h, read-out: HMBA EC50, inhibition of provirus expression
Returns: string. Value is y if measured EC50 is below 5 µM, and n if it is greater than or equal to it.

>  <compound>
O=C1C[C@@H](c2ccc(O)cc2)Oc2cc(O)cc(O)c21 [Naringenin, naringenin, reference compound]

>  <cat>
n

$$$$

Challenge: hey, is EC50 for COc1cc(F)ccc1-c1ncnc(Nc2cccc(C[S@](C)(=N)=O)c2)n1 [Atuveciclib, atuveciclib, reference compound] lower than 5 µM or not?
Response given: y

Challenge: hey, is EC50 for O=c1cc(-c2ccc(O)c(O)c2)oc2cc(O)cc(O)c12 lower than 5 µM or not?
Response given: n

Challenge: hey, is EC50 for CN1CC[C@H](c2c(O)cc(O)c3c(=O)cc(-c4ccccc4Cl)oc23)[C@H](O)C1 lower than 5 µM or not?
Response given: y

Challenge: hey, is EC50 for O=c1cc(-c2ccccc2)oc2cc(O)cc(O)c12 lower than 5 µM or not?
Response given: n

Challenge: hey, is EC50 for O=c1cc(-c2ccc(O)cc2)oc2cc(O)cc(O)c12 lower than 5 µM or not?
Response given: n
